assay-details: gradient 5% acetonitrile 3 min, to 50% in 2 min, to 85% in 15 min, held 3 min, 100 µL/min
assay-setup: column: Zorbax Extend-C18 2.1 x 50 mm; eluents: water / acetonitrile, 0.1% formic acid
Recorded RP-LC retention time values for a group of compounds are listed next.
endpoint-name: RP-LC retention time (s)

> print(dat)
                                    compound  obs.value
 1  Cc1cc(-c2nc(-c3ccc(OC(F)(F)F)cc3)no2)nn1Cc1ccnc(N2CCN(C3CC3)CC2)c1        957
 2         Cc1nc(-c2cn(-c3cccc(Cl)c3)nn2)no1        858
 3  O=C(Cn1cnc(-c2noc(-c3ccncc3)n2)c1)NCc1ccc(F)cc1        654
 4  CC(C)NC(=O)CN1C(=O)C2CCCCN2c2ccc(S(=O)(=O)N3CCCC3)cc21 (stereo not drawn)        810
 5  O=S(=O)(c1cccc2nsnc12)N1CCCn2nc(-c3cccnc3)cc2C1        627
 6  COc1ccc2c(c1)C1(CCN(S(=O)(=O)c3cccc(F)c3)C1)C(=O)N2 (stereo not drawn)        835
 7  CCS(=O)(=O)c1nc2ccc(NS(=O)(=O)c3ccccc3F)cc2s1        835
 8  CC(=O)Nc1ccc(C(=O)NC2CCN(c3cc(-c4cccs4)[nH]n3)C2)cc1 (stereo not drawn)        641
 9  COC(=O)c1ncn2c1C(=O)N(Cc1ccccc1)C(C)(C(=O)NC1CCCCC1)C2 (stereo not drawn)        750
10  Cn1c(=O)c(N2CCC(NC(=O)Nc3ccccc3)CC2)nc2ccccc21        829
11  O=C(NCc1cccc(F)c1)C1CCN(c2cnc(N3CCSCC3)nc2)CC1        793
12  CCOc1ccc(NC(=O)Cn2cnc3nc(N4CCCC(C(=O)NC(C)C)C4)sc3c2=O)cc1 (stereo not drawn)        698
13  CCN1CCn2cc(S(=O)(=O)Nc3cc(F)ccc3C)cc2C1=O        725
14  CCCCN(C)C(=O)C1CCN(c2cc(Oc3ccc(CC)cc3)ncn2)CC1       1060
15  COCCCNC(=O)C1c2ccccc2C(=O)N(C)C1c1ccc(OC)c(OC)c1 (stereo not drawn)        666
16  CCc1ccc(OCC(=O)N2CCCCC2CCN2CCCCC2)cc1 (stereo not drawn)        703
17  O=C(Nc1c(-c2cccc(F)c2)nc2sc(N3CCCCC3)nn12)C1CC1        897
18  Cc1c(-c2noc(-c3cccc(F)c3)n2)nnn1-c1ccccc1       1090
19  CC(C)n1c(N2CCN(C(=O)c3ccc(Br)o3)CC2)cc(=O)n(C(C)C)c1=O        870
20  CCc1nc(-c2csc(S(=O)(=O)N3CCC(C(=O)Nc4ccc(C)cc4Cl)CC3)c2)no1       1080
21  CCCNc1cc(N2CCC(CCC(=O)NCc3cccc(Cl)c3)CC2)ncn1        718
22  O=C(Cn1nc2c(Oc3ccc(Cl)cc3)nccn2c1=O)NC1CCCC1        810
23  CCn1c(C(=O)NCCCN2CCCC(C)C2)c(N2CCCC2=O)c2cc(OC)ccc21 (stereo not drawn)        666
24  CCOC(=O)c1cccc(Nc2nc(C(=O)OCC)nc3ccccc23)c1        870
25  O=C(Cn1c(=O)n(C2CCCCC2)c2ncccc21)NCc1cccnc1        603
26  O=C(N1CCC(NS(=O)(=O)c2cccc(F)c2)CC1)N1C[C@H]2C[C@H](C1)[C@H]1CCCC(=O)N1C2        704
27  Cc1nc(C(=O)N2CCCCCC2c2nnc(C)o2)co1 (stereo not drawn)        649
28  Cn1nc2n(c1=O)CCN(C(=O)C1(c3ccccc3)CCCC1)CC2        736
